FYI, the data here is from patent US6355799B1.

- Tested on: redroot pigweed (Amaranthus retroflexus, AMARE)
- ASSAY: Pre-emerge test, greenhouse herbicide activity screening
- Assay type: in vivo
- CONDITIONS_USED: pre-emerge, rate 63 g ai/ha, phytotoxicity rating 0-100 at 14 days after application
OBSERVABLE: Pre-emerge Herbicidal Activity AMARE
// print number alone

Challenge: Name the recorded Pre-emerge Herbicidal Activity AMARE for Cc1cc(C)c(COC(=O)Nc2c(C)c(Cl)cc(F)c2-n2c(=O)cc(C(F)(F)F)n(C)c2=O)c(C)c1 [4-69] .
Response given: 30

Challenge: Name the recorded Pre-emerge Herbicidal Activity AMARE for Nc1c(O)c(Cl)cc(F)c1N1C(=O)C2CCCCN2C1=S (single isomer, unassigned) [12-2] .
Response given: 100

Challenge: Name the recorded Pre-emerge Herbicidal Activity AMARE for Cc1cccc(COC(=O)Nc2c(C)c(Cl)cc(F)c2-n2c(=O)cc(C(F)(F)F)n(C)c2=O)c1 [4-68] .
Response given: 100

Challenge: Name the recorded Pre-emerge Herbicidal Activity AMARE for Cc1c(Cl)cc(F)c(-n2c(=O)cc(C(F)(F)F)n(C)c2=O)c1NC(=O)OCCc1ccccc1 [4-57] .
Response given: 95

Challenge: Name the recorded Pre-emerge Herbicidal Activity AMARE for Cc1ccc(COC(=O)Nc2c(C)c(Cl)cc(F)c2-n2c(=O)cc(C(F)(F)F)n(C)c2=O)cc1 [4-60] .
Response given: 100

Challenge: Name the recorded Pre-emerge Herbicidal Activity AMARE for C#CCOc1c(Cl)cc(Cl)c(-n2nnn(CCCF)c2=O)c1N [Compound 5-15] .
Response given: 0

Challenge: Name the recorded Pre-emerge Herbicidal Activity AMARE for Cc1ccccc1COC(=O)Nc1c(C)c(Cl)cc(F)c1-n1c(=O)cc(C(F)(F)F)n(C)c1=O [4-56] .
Response given: 100

Challenge: Name the recorded Pre-emerge Herbicidal Activity AMARE for C#CCOc1c(Cl)cc(F)c(-n2nnn(CCCF)c2=O)c1N [Compound 5-17] .
Response given: 30

Challenge: Name the recorded Pre-emerge Herbicidal Activity AMARE for Nc1c(OC2CCCC2)c(Cl)cc(F)c1N1C(=O)C2=C(CCCC2)C1=O [Compound 8-5] .
Response given: 40

----------
- Tested on: barnyardgrass (Echinochloa crus-galli, ECHCG)
- ASSAY: Post-emerge test, greenhouse herbicide activity screening
- Type: in vivo
- CONDITIONS_USED: 63 g ai/ha; post-emerge; 14 days after application; rating scale 0-100
OBSERVABLE: Post-emerge Herbicidal Activity ECHCG (phytotoxicity rating)
// print number alone

Challenge: Provide the documented Post-emerge Herbicidal Activity ECHCG (phytotoxicity rating) with barnyardgrass (Echinochloa crus-galli, ECHCG) as the system for COc1c(Cl)cc(F)c(-n2c(=O)cc(C(F)(F)F)n(C)c2=O)c1NN [Compound 15-1]
Response given: 80

Challenge: Provide the documented Post-emerge Herbicidal Activity ECHCG (phytotoxicity rating) with barnyardgrass (Echinochloa crus-galli, ECHCG) as the system for CCOc1c(Cl)cc(F)c(-n2c(=O)cc(C(F)(F)F)n(C)c2=O)c1Cl [14-62]
Response given: 0

Challenge: Provide the documented Post-emerge Herbicidal Activity ECHCG (phytotoxicity rating) with barnyardgrass (Echinochloa crus-galli, ECHCG) as the system for COc1c(Cl)cc(F)c(-n2c(=O)cc(C(F)(F)F)n(C)c2=O)c1NN=Cc1ccc(F)cc1F [15-20]
Response given: 50

Challenge: Provide the documented Post-emerge Herbicidal Activity ECHCG (phytotoxicity rating) with barnyardgrass (Echinochloa crus-galli, ECHCG) as the system for CCOC(=O)C(Cl)Cc1c(OC)c(Cl)cc(F)c1-c1nn(C)c(C(F)(F)F)c1Cl (stereo not shown) [14-56]
Response given: 20
